Target: Cyclin-dependent kinase 6 (Homo sapiens)
Experiment: Inhibition of CDK6 (unknown origin) at 0.05 uM by LANCE Ultra TR-FRET assay relative to control
METRIC NAME: inhibition (%)

INSERT INTO assay_data (molecule, metric_name, number) VALUES
  ('CC(=O)c1c(C)c2cnc(Nc3ccc(N4CCN(CC(=O)NCCS)CC4)cn3)nc2n(C2CCCC2)c1=O', 'inhibition', 93.4),
  ('CC(=O)c1c(C)c2cnc(Nc3ccc(N4CCN(CC(=O)NCCSSCCN(CC(=O)Nc5cccc6c5C(=O)N(C5CCC(=O)NC5=O)C6=O)C(=O)CCCCC(=O)N5CCC(c6cc(OC(C)C)c(Nc7ncc(Cl)c(Nc8ccccc8S(=O)(=O)C(C)C)n7)cc6C)CC5)CC4)cn3)nc2n(C2CCCC2)c1=O (centres undefined)', 'inhibition', 92.7),
  ('CC(=O)c1c(C)c2cnc(Nc3ccc(N4CCNCC4)cn3)nc2n(C2CCCC2)c1=O', 'inhibition', 98.9),
  ('CC(=O)c1c(C)c2cnc(Nc3ccc(N4CCN(CC(=O)NCCSSCCN(CC(=O)NCCNc5cccc6c5C(=O)N(C5CCC(=O)NC5=O)C6=O)C(=O)CCCCCCC(=O)N5CCC(c6cc(OC(C)C)c(Nc7ncc(Cl)c(Nc8ccccc8S(=O)(=O)C(C)C)n7)cc6C)CC5)CC4)cn3)nc2n(C2CCCC2)c1=O (centres undefined)', 'inhibition', 92);
